- assayInfo: clinical
- conditionContext: both sexes, human, in vivo, po, 100 mg, Cmax (geometric mean)
- Source text: Methods: This was an open-label study conducted at a single study center in conformance with good clinical practice (GCP). Thirty-six eligible healthy male and female subjects were enrolled and distributed into 3 groups as follows: Group 1—A total of 12 females between 18 to 55 years of age, inclusive (±5 years age-matched and ±10% weight-matched to subjects in Group 2). […]
quantity: Cmax

Query string: // Input: `O[C@H]1CC[C@H](Nc2ncc3nc(Nc4c(F)cc(F)cc4F)n([C@H]4CCOC4)c3n2)CC1` . Output its Cmax only.
Result string: 649 ng/mL
